Origin of the recorded values: paper PMC11480844

B1: H2-Kb / Ed16-1 (parent complex)
chain 1: GEQVEQRPPHLSVREGDSAVITCTYTDPNSYYFFWYKQEPGASLQLLMKVFSSTEINEGQGFTVLLNKKDKRLSLNLTAAHPGDSAAYFCAVSGSNNRIFFGDGTQLVVKP
chain 2: EAAVTQSPRSKVAVTGGKVTLSCHQTNNHDYMYWYRQDTGHGLRLIHYSYVADSTEKGDIPDGYKASRPSQENFSLILELASLSQTAVYFCASRTGTDYTFGSGTRLLVI
chain 3: not shown
chain 4: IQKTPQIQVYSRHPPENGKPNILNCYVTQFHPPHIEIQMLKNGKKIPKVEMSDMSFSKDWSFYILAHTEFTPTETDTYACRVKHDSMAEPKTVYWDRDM
chain 5: SIINFEKL

Variants of: B1
Test: % of reporter cells activated (NFAT-GFP), raw; further: test concentration or dose not given here
Rule: ratio to parent of 0.5 or more gives fulfilled; anything lower gives not fulfilled.

chain 5 I2D    fulfilled
chain 5 S1G    fulfilled
chain 5 K7Q    fulfilled
chain 5 K7Y    fulfilled
chain 5 I3E    fulfilled
chain 5 K7S    fulfilled
chain 5 F5Q    fulfilled
chain 5 K7M    fulfilled
chain 5 E6R    not fulfilled
chain 5 I2G    fulfilled
chain 5 S1L    not fulfilled
chain 5 K7D    fulfilled
chain 5 S1P    not fulfilled
chain 5 F5G    fulfilled
chain 5 N4E    not fulfilled
chain 5 I3R    not fulfilled
chain 5 I3K    fulfilled
chain 5 I2V    fulfilled
chain 5 K7A    fulfilled
chain 5 S1D    not fulfilled
chain 5 S1I    not fulfilled
chain 5 I2K    fulfilled
